Test system: Mycobacterium avium
ASSAY INFO: Antimycobacterial activity against isoniazid, rifampicin, ethambutol and ofloxacin-resistant Mycobacterium avium My 330/88 after 21 days
Type: functional
MEASUREMENT CONTEXT: My 330/88, 504 h
PROPERTY MEASURED: log10 MIC (log10 of the value in µM)
Transform log10 | Measure MIC | Unit µM

Ask: Value lookup for log10 MIC; key = CCOP(=O)(OCC)Oc1ccc(Br)cc1C(=O)Nc1ccc(F)cc1
Result: 1.51

Ask: Value lookup for log10 MIC; key = CCOP(=O)(OCC)Oc1cc(Cl)ccc1C(=O)Nc1ccc(Cl)cc1
Result: 0.90

Ask: Value lookup for log10 MIC; key = CCOP(=O)(OCC)Oc1ccc(Cl)cc1C(=O)Nc1cccc(F)c1
Result: 1.51

Ask: Value lookup for log10 MIC; key = CCOP(=O)(OCC)Oc1ccc(Br)cc1C(=O)Nc1ccc(Br)cc1
Result: 0.90

Ask: Value lookup for log10 MIC; key = CCOP(=O)(OCC)Oc1ccc(Br)cc1C(=O)Nc1ccc(Cl)cc1
Result: 0.90

* * *

System: Mycobacterium kansasii
ASSAY INFO: Antimycobacterial activity against Mycobacterium kansasii My 235/80 after 14 days
Format: functional
MEASUREMENT CONTEXT: My 235/80, 336 h
Listing of recorded MIC by entry.
Quick reminder: number only, in µM, skip the unit.

STRUCTURE: CCOP(=O)(OCC)Oc1ccc(Br)cc1C(=O)Nc1cccc(F)c1
MIC [µM]: 16

STRUCTURE: CCOP(=O)(OCC)Oc1cc(Cl)ccc1C(=O)Nc1cccc(Br)c1
MIC [µM]: 8

STRUCTURE: CCOP(=O)(OCC)Oc1ccc(Cl)cc1C(=O)Nc1ccc(Cl)c(Cl)c1
MIC [µM]: 4

Ask: Value lookup for MIC; key = CCOP(=O)(OCC)Oc1cc(Cl)ccc1C(=O)Nc1ccc(Cl)cc1
Result: 4

Ask: Value lookup for MIC; key = CCOP(=O)(OCC)Oc1ccc(Cl)cc1C(=O)Nc1ccc(Cl)cc1
Result: 8

Ask: Value lookup for MIC; key = CCOP(=O)(OCC)Oc1ccc(Br)cc1C(=O)Nc1ccc(Cl)cc1
Result: 4

* * *

Listing of recorded MIC95 by entry.
System: Staphylococcus aureus
ASSAY INFO: Antibacterial activity against methicillin-resistant Staphylococcus aureus H 5996/08 after 24 hrs by broth microdilution method
Format: functional
MEASUREMENT CONTEXT: H 5996/08, 24 h
Quick reminder: number only, in µM, skip the unit.

Please review the following examples before continuing.
STRUCTURE: CCOP(=O)(OCC)Oc1ccc(Cl)cc1C(=O)Nc1cccc(Cl)c1
ASSAYED TARGET: Staphylococcus aureus
MIC95 / µM: 500
//
STRUCTURE: CCOP(=O)(OCC)Oc1cc(Cl)ccc1C(=O)Nc1ccc(Cl)cc1
ASSAYED TARGET: Staphylococcus aureus
MIC95 / µM: 500
//
STRUCTURE: CCOP(=O)(OCC)Oc1ccc(Br)cc1C(=O)Nc1ccc(Cl)cc1
ASSAYED TARGET: Staphylococcus aureus
MIC95 / µM: 500
//
STRUCTURE: CCOP(=O)(OCC)Oc1cc(Cl)ccc1C(=O)Nc1ccc(C(F)(F)F)cc1
ASSAYED TARGET: Staphylococcus aureus
MIC95 / µM: 62.5

Ask: Value lookup for MIC95; key = CCOP(=O)(OCC)Oc1ccc(Cl)cc1C(=O)Nc1cccc(Br)c1
Result: 31.2
